- SUBJECT_OF_TEST: HLA-A*0201 (human)
- TEST_DETAILS: competition with 125I probe peptide for purified HLA, gel filtration
pIC50: −log10 of the molar value.
REPORTED_METRIC: pIC50

[[record]]
binder = "GLIMVLSFL (modifications not checked) [1167.08]"
reported_metric = "pIC50"
value_reported = 7.66

[[record]]
binder = "FMKAVCVEV (modifications not checked) [1167.16]"
reported_metric = "pIC50"
value_reported = 7.20

